measured-target: Oxysterols receptor LXR-beta (Homo sapiens) (UniProt P55055)
Sequence (P55055 whole entry, looked up): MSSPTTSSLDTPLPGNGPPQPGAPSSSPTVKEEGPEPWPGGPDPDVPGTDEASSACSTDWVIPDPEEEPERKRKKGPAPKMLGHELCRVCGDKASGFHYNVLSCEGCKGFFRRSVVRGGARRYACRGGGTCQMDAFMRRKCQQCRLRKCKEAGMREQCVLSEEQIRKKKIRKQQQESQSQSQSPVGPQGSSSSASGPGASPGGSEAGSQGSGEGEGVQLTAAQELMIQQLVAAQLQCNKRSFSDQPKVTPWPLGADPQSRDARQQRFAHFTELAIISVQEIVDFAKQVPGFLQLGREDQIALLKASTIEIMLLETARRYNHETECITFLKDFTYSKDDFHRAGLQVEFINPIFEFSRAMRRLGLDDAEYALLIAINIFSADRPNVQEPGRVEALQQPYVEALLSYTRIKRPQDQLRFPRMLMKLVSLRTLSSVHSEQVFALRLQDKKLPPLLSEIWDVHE
measurement-protocol: ATG_LXRb_TRANS: Attagene TRANS-FACTORIAL HepG2 Assay for human Liver X Receptor beta (LXRb) (AID 2282981)
condition-info: HepG2 Attagene TRANS GAL4-LXRb reporter, mRNA
Records with an inconclusive call do not appear. The source made the active and inactive calls. The calls were made as follows: active = hit-call score of the fitted dose curve at least 0.9, where 1 is the maximum; inconclusive = response in the unintended direction; inactive = score below 0.9.
Thanks in advance; please answer with one of these: yes (active), no (inactive)

Query string: Recorded test call requested for C#CCC1=C(C)C(OC(=O)C2C(C=C(C)C)C2(C)C)CC1=O (stereo unspecified)
Result string: no

Query string: Recorded test call requested for CCC(=NOC/C=C/Cl)C1=C(O)CC(C2CCOCC2)CC1=O (stereo unspecified)
Result string: no

Query string: Recorded test call requested for CCOP(=S)(Oc1cnc(C(C)(C)C)nc1)OC(C)C (stereo unspecified)
Result string: yes

Query string: Recorded test call requested for CCOP(=O)(NC(C)C)Oc1ccc(SC)c(C)c1 (stereo unspecified)
Result string: no

Query string: Recorded test call requested for COc1cc(OC)nc(Sc2cccc(Cl)c2C(=O)O)n1
Result string: no

Query string: Recorded test call requested for CCC(CC)Nc1c([N+](=O)[O-])cc(C)c(C)c1[N+](=O)[O-]
Result string: no

Query string: Recorded test call requested for CCCCSP(=O)(SCCCC)SCCCC
Result string: no

Query string: Recorded test call requested for CON=C(C(=O)OC)c1ccccc1CON=C(C)c1cccc(C(F)(F)F)c1
Result string: no

Query string: Recorded test call requested for CCOC(=O)COc1cc(-c2nn(C)c(OC(F)F)c2Cl)c(F)cc1Cl
Result string: no

Query string: Recorded test call requested for CSc1nnc(C(C)(C)C)c(=O)n1N
Result string: no

Query string: Recorded test call requested for O=[N+]([O-])c1cc(C(F)(F)F)c(Cl)c([N+](=O)[O-])c1Nc1ncc(C(F)(F)F)cc1Cl
Result string: no

Cited source: PubChem BioAssay (EPA / NIEHS)
